- testDescription: in vitro
- conditionNotes: human, CC50, uninfected A549 cells, CellTiter-Glo
The reader will find reported CC50 values listed item by item below.

compound="CC[C@H]1/C=C/COc2c(ccc(F)c2F)[C@@H](c2ccccc2)N2CN1C(=O)c1c(O)c(=O)ccn12 [Compound 101AA]" assayendpoint=CC50 result="> 0.1 µM"
compound="O=C1c2c(O)c(=O)ccn2N2CN1C/C=C\\CCc1ccncc1[C@@H]2c1ccccc1 (single isomer, unassigned) [Compound 35B]" assayendpoint=CC50 result="> 2 µM"
compound="COC[C@@H]1/C=C/COc2c(ccc(F)c2F)[C@H](c2ccccc2)N2CN1C(=O)c1c(O)c(=O)ccn12 (single isomer, unassigned) [Compound 153AA]" assayendpoint=CC50 result="> 0.1 µM"
compound="C[C@H]1C/C=C/COc2c(F)cccc2[C@@H](c2ccccc2)N2CN1C(=O)c1c(O)c(=O)ccn12 (single isomer, unassigned) [Compound 100AA]" assayendpoint=CC50 result="> 0.1 µM"
compound="O=C1c2c(O)c(=O)ccn2N2CN1C/C=C\\COc1cccc3c1[C@@H]2c1ccccc1CC3 (single isomer, unassigned) [Compound 33B]" assayendpoint=CC50 result="> 2 µM"

Could you now look at the following compound, please?
Task: Form field: reported CC50 of C[C@@H]1/C=C/COc2c(ccc(F)c2F)[C@@H](c2ccccc2)N2CN1C(=O)c1c(O)c(=O)ccn12 (single isomer, unassigned) [Compound 148AA]
Result: > 0.05 µM

----------
Below, each entry is listed alongside its reported CC50.
- testDescription: in vitro
- conditionNotes: human, CC50, uninfected A549 cells, CellTiter-Glo

Here is how some molecules turned out for CC50.
molecule="O=C1c2c(O)c(=O)ccn2N2CN1CCCCOc1c(F)cccc1[C@H]2c1ccccc1 (single isomer, unassigned) [Compound 114A]" assayendpoint=CC50 result="> 200 nM"
molecule="CC[C@@H]1/C=C/COc2c(Cl)cccc2[C@H](c2ccccc2)N2CN1C(=O)c1c(O)c(=O)ccn12 (single isomer, unassigned) [Compound 98AB]" assayendpoint=CC50 result="> 200 nM"
molecule="C[C@@H]1/C=C/COc2cc(F)c(F)c3c2[C@H](c2ccccc2SC3)N2CN1C(=O)c1c(O)c(=O)ccn12 (single isomer, unassigned) [Compound 162A]" assayendpoint=CC50 result="> 100 nM"
molecule="O=C1c2c(O)c(=O)ccn2N2CN1C/C=C\\COc1c(F)cccc1[C@H]2c1cccc(F)n1 (single isomer, unassigned) [Compound 104B]" assayendpoint=CC50 result="> 200 nM"
molecule="O=C1c2c(O)c(=O)ccn2N2CN1CCCCCc1ccccc1[C@@H]2c1ccccn1 (single isomer, unassigned) [Compound 40A]" assayendpoint=CC50 result="> 2000 nM"

Task: What does the data say about its CC50? Entry: O=C1c2c(O)c(=O)ccn2N2CN1C/C=C\COc1c(ccc(Cl)c1Cl)[C@H]2c1ccccc1 (single isomer, unassigned) [Compound 103A]
Result: > 200 nM

----------
Recorded CC50 values for a group of compounds are listed next.
- testDescription: in vitro
- conditionNotes: human, CC50, uninfected A549 cells, CellTiter-Glo

Task: For the compound O=C1c2c(O)c(=O)ccn2N2CN1C/C=C\COc1cc(Cl)ccc1[C@H]2c1ccccc1 (single isomer, unassigned) [Compound 72A] , what CC50 is on record?
Result: > 2000 nM

Task: Also O=C1c2c(O)c(=O)ccn2N2CN1CCCCCc1ccccc1[C@H]2c1ccccn1 (single isomer, unassigned) [Compound 40B] ?
Result: > 2000 nM

Task: Now consider O=C1c2c(O)c(=O)ccn2N2CN1CCCCCOc1ccccc1C2c1ccccc1 (stereo not shown) [Compound 9] .
Result: > 2000 nM

Task: Try this compound too: O=C1c2c(O)c(=O)ccn2N2CN1CC/C=C/COc1cccc3c1[C@@H]2c1cccc(F)c1SC3 (single isomer, unassigned) [Compound 137A]
Result: > 200 nM

----------
- testDescription: in vitro
- conditionNotes: human, CC50, uninfected A549 cells, CellTiter-Glo
assayEndpoint: CC50

Task: So what does the record say about CC50 for O=C1c2c(O)c(=O)ccn2N2CN1C/C=C/COc1cccc3c1[C@H]2c1ccccc1S(=O)(=O)C3 ?
Result: > 1000 nM

----------
Recorded CC50 values for a group of compounds are listed next.
- testDescription: in vitro
- conditionNotes: human, CC50, uninfected A549 cells, CellTiter-Glo

For orientation, consider the following solved cases.
compound="C[C@H]1/C=C\\COc2cc(F)c(F)c3c2C(c2ccccc2SC3)N2CN1C(=O)c1c(O)c(=O)ccn12 (single isomer, unassigned) [Compound 162D]" result="> 100 nM"
compound="O=C1c2c(O)c(=O)ccn2N2CN1C/C=C\\CCc1cnccc1[C@@H]2c1ccccc1 (single isomer, unassigned) [Compound 56B]" result="> 2000 nM"
compound="CC[C@@H]1/C=C/COc2c(F)cccc2[C@@H](c2ccccn2)N2CN1C(=O)c1c(O)c(=O)ccn12 (single isomer, unassigned) [Compound 154AA]" result="> 100 nM"

Task: Return reported CC50; argument: CC[C@@H]1/C=C/COc2c(Cl)cccc2[C@@H](c2ccccc2)N2CN1C(=O)c1c(O)c(=O)ccn12 (single isomer, unassigned) [Compound 98BB]
Result: > 1000 nM

Task: Follow-up item: O=C1c2c(O)c(=O)ccn2N2CN1CCCCOc1ccc(F)cc1[C@@H]2c1cccc(F)c1 (single isomer, unassigned) [Compound 32B]
Result: > 2000 nM

Task: What do you have for CC[C@@H]1/C=C/COc2cccc3c2[C@H](c2ccccc2SC3)N2CN1C(=O)c1c(O)c(=O)ccn12 [Compound 92AB] ?
Result: > 1000 nM

Task: Ok, now O=C1c2c(O)c(=O)ccn2N2CN1CCCCCCc1ccccc1C2c1ccccc1 (stereo not shown) [Compound 2]
Result: > 20000 nM

----------
- testDescription: in vitro
- conditionNotes: human, CC50, uninfected A549 cells, CellTiter-Glo
Let's look at some compounds and their measured CC50.

Example results:
compound="CC(C)(C)[C@@H]1/C=C/COc2cccc3c2[C@H](c2ccccc2SC3)N2CN1C(=O)c1c(O)c(=O)ccn12 (single isomer, unassigned) [Compound 157B]" result="> 100 nM"
compound="O=C1c2c(O)c(=O)ccn2N2CN1C/C=C\\COc1ccc(Cl)cc1[C@H]2c1ccccc1 (single isomer, unassigned) [Compound 51A]" result="> 2000 nM"
compound="CC[C@H]1/C=C\\COc2cc(F)c(F)c3c2[C@H](c2ccccc2SC3)N2CN1C(=O)c1c(O)c(=O)ccn12 (single isomer, unassigned) [Compound 126AA]" result="> 200 nM"
compound="C[C@H]1/C=C/COc2ccccc2[C@@H](c2ccccc2)N2CN1C(=O)c1c(O)c(=O)ccn12 (single isomer, unassigned) [Compound 29AB]" result="> 200 nM"
compound="C[C@@H]1/C=C\\COc2cccc3c2[C@@H](c2ccccc2SC3)N2CN1C(=O)c1c(O)c(=O)ccn12 (single isomer, unassigned) [Compound 138AB]" result="> 50 nM"

Task: Look at this compound and give its reported CC50. O=C1c2c(O)c(=O)ccn2N2CN1C/C=C\COc1c(OC(F)(F)F)cccc1[C@@H]2c1ccccc1 (single isomer, unassigned) [Compound 134B]
Result: > 200 nM

Task: Can you handle O=C1c2c(O)c(=O)ccn2N2CN1C1(/C=C\COc3cc(F)c(F)c4c3[C@@H]2c2ccccc2SC4)CC1 (single isomer, unassigned) [Compound 108C] next?
Result: > 200 nM

Task: Next entry: CC(C)c1ccccc1[C@@H]1c2ccc(F)c(F)c2OC/C=C\CN2CN1n1ccc(=O)c(O)c1C2=O (single isomer, unassigned) [Compound 158B]
Result: > 100 nM

Task: Ok, now CC[C@@H]1/C=C\COc2cccc3c2[C@@H](c2ccccc2SC3)N2CN1C(=O)c1c(O)c(=O)ccn12 [Compound 92BB]
Result: > 100 nM

Task: Try the compound O=C1c2c(O)c(=O)ccn2N2CN1CC/C=C/COc1ccccc1[C@@H]2c1ccccc1 [Compound 10A]
Result: > 2000 nM

Task: Moving on to the next compound: O=C1c2c(O)c(=O)ccn2N2CN1CC/C=C\COc1ccc(F)c3c1[C@H]2c1cccc(F)c1SC3 (single isomer, unassigned) [Compound 151B]
Result: > 100 nM

Task: Input Cc1ccccc1C1c2ccc(F)c(F)c2OC/C=C\CN2CN1n1ccc(=O)c(O)c1C2=O (single isomer, unassigned) [Compound 155B]
Result: > 100 nM

Task: Next compound: O=C1c2c(O)c(=O)ccn2N2CN1C/C=C\COc1c(OC(F)(F)F)cccc1[C@H]2c1ccccc1 (single isomer, unassigned) [Compound 134A]
Result: > 200 nM

----------
Each entry below carries its reported CC50.
- testDescription: in vitro
- conditionNotes: human, CC50, uninfected A549 cells, CellTiter-Glo

compound="CC(C)[C@@H]1/C=C/COc2c(F)cccc2[C@H](c2ccccc2)N2CN1C(=O)c1c(O)c(=O)ccn12 (single isomer, unassigned) [Compound 124BB]" assayendpoint=CC50 result="> 200 nM"
compound="COC[C@H]1/C=C/COc2c(ccc(F)c2F)[C@H](c2ccccc2)N2CN1C(=O)c1c(O)c(=O)ccn12 (single isomer, unassigned) [Compound 153AB]" assayendpoint=CC50 result="> 100 nM"

Please examine the following record next.
Task: Reported CC50, compound C[C@H]1/C=C\COc2cccc3c2[C@@H](c2ccccc2SC3)N2CN1C(=O)c1c(O)c(=O)ccn12 (single isomer, unassigned) [Compound 138AA] : ____
Result: > 50 nM
